Data origin: ChEMBL document CHEMBL3877279

assay: Cytotoxicity against human SH-SY5Y cells assessed as cell viability at 50 uM after 48 hrs by MTT assay relative to control; type: toxicity, cell-based; conditions: read-out: Activity
Measured viability at 48 h, 50 µM accompanies every entry in the list below.
attributeMeasured: viability at 48 h, 50 µM (%)

[[record]]
givensmiles = "COc1cc2c(cc1OC)C(=O)/C(=C/c1ccc(N3CCN(c4ncccn4)CC3)cc1)C2"
measured = 89.3

[[record]]
givensmiles = "COc1cc2c(cc1OC)C(=O)/C(=C/c1ccc(N3CCN(C(=O)c4ccoc4)CC3)cc1)C2"
measured = 86.9

[[record]]
givensmiles = "COc1cc2c(cc1OC)C(=O)/C(=C/c1ccc(N3CCN(C(c4ccc(F)cc4)c4ccc(F)cc4)CC3)cc1)C2"
measured = 88.6


###

Reported pIC50 values are given for each entry in this list.
biological target: Acetylcholinesterase (Electrophorus electricus, UniProt O42275); experiment: Inhibition of Electric eel AChE using acetylthiocholine iodide as substrate preincubated for 5 mins followed by substrate addition measured after 2 mins by Ellman's method
Sequence (O42275 whole entry): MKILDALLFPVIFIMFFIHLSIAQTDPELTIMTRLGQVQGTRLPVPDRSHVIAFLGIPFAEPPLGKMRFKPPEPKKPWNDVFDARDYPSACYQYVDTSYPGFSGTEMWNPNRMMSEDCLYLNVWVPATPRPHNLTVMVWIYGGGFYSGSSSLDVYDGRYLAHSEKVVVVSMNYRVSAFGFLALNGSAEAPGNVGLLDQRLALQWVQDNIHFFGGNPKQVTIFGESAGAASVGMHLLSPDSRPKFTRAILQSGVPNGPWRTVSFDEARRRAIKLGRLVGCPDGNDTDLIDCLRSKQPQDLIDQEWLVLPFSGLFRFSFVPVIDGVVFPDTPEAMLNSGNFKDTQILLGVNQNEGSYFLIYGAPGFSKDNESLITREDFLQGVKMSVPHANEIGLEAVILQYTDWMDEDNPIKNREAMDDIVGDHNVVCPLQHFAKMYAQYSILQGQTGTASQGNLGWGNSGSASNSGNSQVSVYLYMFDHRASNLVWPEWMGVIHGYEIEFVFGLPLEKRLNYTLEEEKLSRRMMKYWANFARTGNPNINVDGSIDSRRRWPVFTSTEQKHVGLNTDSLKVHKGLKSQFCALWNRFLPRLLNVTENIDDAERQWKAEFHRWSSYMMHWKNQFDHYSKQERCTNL
pIC50: −log10 of the molar value.
attributeMeasured: pIC50

[[record]]
givensmiles = "COc1cc2c(cc1OC)C(=O)/C(=C/c1ccc(N3CCN(C(c4ccccc4)c4ccccc4)CC3)cc1)C2"
measured = 7.09

[[record]]
givensmiles = "COc1ccc(N2CCN(c3ccc(/C=C4\\Cc5cc(OC)c(OC)cc5C4=O)cc3)CC2)cc1"
measured = 6.92

[[record]]
givensmiles = "COc1cc2c(cc1OC)C(=O)/C(=C/c1ccc(N3CCN(c4ccc(C(F)(F)F)cc4)CC3)cc1)C2"
measured = 6.82

[[record]]
givensmiles = "COc1cc2c(cc1OC)C(=O)/C(=C/c1ccc(N3CCN(Cc4ccc5c(c4)OCO5)CC3)cc1)C2"
measured = 5.73

[[record]]
givensmiles = "COc1cc2c(cc1OC)C(=O)/C(=C/c1ccc(N3CCN(c4ccc(F)cc4)CC3)cc1)C2"
measured = 6.28

[[record]]
givensmiles = "COc1cc2c(cc1OC)C(=O)/C(=C/c1ccc(N3CCN(c4ncccn4)CC3)cc1)C2"
measured = 7.60


###

Let's look at some compounds and their measured viability at 48 h, 25 µM.
assay: Cytotoxicity against human SH-SY5Y cells assessed as cell viability at 25 uM after 48 hrs by MTT assay relative to control; format: toxicity, cell-based; details: read-out: Activity
attributeMeasured: viability at 48 h, 25 µM (%)

[[record]]
givensmiles = "COc1cc2c(cc1OC)C(=O)/C(=C/c1ccc(N3CCN(C(=O)c4ccoc4)CC3)cc1)C2"
unitdescriptor = "%"
measured = 90.1

[[record]]
givensmiles = "COc1cc2c(cc1OC)C(=O)/C(=C/c1ccc(N3CCN(c4ncccn4)CC3)cc1)C2"
unitdescriptor = "%"
measured = 92.8

[[record]]
givensmiles = "COc1cc2c(cc1OC)C(=O)/C(=C/c1ccc(N3CCN(C(c4ccc(F)cc4)c4ccc(F)cc4)CC3)cc1)C2"
unitdescriptor = "%"
measured = 92.8


###

experiment: Cytotoxicity against human SH-SY5Y cells assessed as cell viability at 5 uM after 48 hrs by MTT assay relative to control; assay type: toxicity, cell-based; conditions: read-out: Activity
Reported viability at 48 h, 5 µM values for a set of compounds
attributeMeasured: viability at 48 h, 5 µM (%)

[[record]]
givensmiles = "COc1cc2c(cc1OC)C(=O)/C(=C/c1ccc(N3CCN(C(c4ccc(F)cc4)c4ccc(F)cc4)CC3)cc1)C2"
measured = 95.4

[[record]]
givensmiles = "COc1cc2c(cc1OC)C(=O)/C(=C/c1ccc(N3CCN(C(=O)c4ccoc4)CC3)cc1)C2"
measured = 94.4

[[record]]
givensmiles = "COc1cc2c(cc1OC)C(=O)/C(=C/c1ccc(N3CCN(c4ncccn4)CC3)cc1)C2"
measured = 96.1

